- System: Streptococcus pyogenes SSI-9
- measurement description: Antibacterial activity assay of bead-derived peptides (three concentrations)
- Assay type: cell-based
- Set-up: key: +++: inhibition by the 640-fold diluted peptide solution; ++: inhibition by the 160-fold diluted solution; +: inhibition by the 40-fold diluted solution; -: no inhibition
- measurement context: S. pyogenes, bead-derived peptide solution, three concentrations
Where a SMILES comes first, the peptide text is derived from it. [ ]: non-standard residue; d: D form. The star is where a group is joined. NHCH2CH2OH = OCCN*; For = O=C*
quantity kind: antibacterial activity

CC(C)C[C@@H](NC(=O)[C@H](C)NC(=O)CNC(=O)[C@@H](NC=O)C(C)C)C(=O)N[C@@H](C)C(=O)N[C@@H](C(=O)N[C@H](C(=O)N[C@H](CC(C)C)C(=O)N[C@@H](Cc1c[nH]c2ccccc12)C(=O)N[C@H](CC(C)C)C(=O)N[C@@H](Cc1c[nH]c2ccccc12)C(=O)N[C@H](CC(C)C)C(=O)N[C@@H](Cc1c[nH]c2ccccc12)C(=O)N[C@@H](C(=O)N[C@@H](Cc1c[nH]c2ccccc12)C(=O)NCCO)C(C)C)C(C)C)[C@H](C)O [compound 11302] (For-VGA[dL]A[dT]V[dL]W[dL]W[dL]W[dV]W-NHCH2CH2OH); -
CNC(=O)C[C@@H](NC(=O)[C@H](Cc1c[nH]c2ccccc12)NC(=O)[C@@H](CC(C)C)NC(=O)[C@H](Cc1c[nH]c2ccccc12)NC(=O)[C@@H](CC(C)C)NC(=O)[C@H](Cc1c[nH]c2ccccc12)NC(=O)[C@H](NC(=O)[C@@H](NC(=O)[C@@H](CC(C)C)NC(=O)[C@H](C)NC(=O)[C@@H](CC(C)C)NC(=O)[C@H](C)NC(=O)CNC(=O)[C@@H](NC=O)C(C)C)C(C)C)C(C)C)C(=O)N[C@@H](Cc1c[nH]c2ccccc12)C(=O)NCCO [compound 6829] (For-VGA[dL]A[dL]V[dV]W[dL]W[dL]W[dD](NHMe)W-NHCH2CH2OH); -
